Test: Neurotoxicity in ip dosed Swiss mouse assessed as delay in motor coordination administered 15 mins before test by chimney test
Type: toxicity, organism-based
Conditions: in vivo
measured-quantity: TD50 at 0.25 h (mg/kg)
All answers are understood in mg/kg, so give the number only.

Would you mind telling me what TD50 at 0.25 h value was observed for CCn1c(S)nnc1-c1cccc(Cl)c1 ?
731

# query: TD50 at 0.25 h of entry CCCC(CCC)C(=O)[O-].CCCC(CCC)C(=O)[O-].[Mg+2] [MAGNESIUM VALPROATE]
363

// lookup TD50 at 0.25 h for CCCCCCCCCn1c(-c2cccc(Cl)c2)n[nH]c1=S
667
